Target: purified N132D ZZ fragment p62 (122-175) of the ITC table (Fig. 3b) (human) (UniProt Q13501)
Assay: ITC; protein 0.05 mM, 4-mer peptide 1 mM as injectant, B buffer (50 mM Tris-HCl pH 7.5, 200 mM NaCl), 25 °C, Microcal Auto-ITC200; single site-binding model
EXPERIMENTAL_READOUT: Kd (µM)

{"columns": ["BINDER", "NUMERIC_VALUE"],
 "data": [
  ["RIFS [RIFS tetrapeptide (Nt-Arg)]", 2.85],
  ["YIFS [YIFS tetrapeptide (Nt-Tyr)]", 107]
]}
